# System under test: T1, Cdc25, P04821
# T1 sequence (P04821 50-136, looked up): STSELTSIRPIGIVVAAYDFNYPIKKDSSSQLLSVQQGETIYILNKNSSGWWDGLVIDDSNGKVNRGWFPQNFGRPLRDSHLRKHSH
# Run description: SPOT array
# Measurement parameters: median of control spots 969
Measured SPOT intensity by item
Property name: SPOT intensity

>>> df
             binder   property_name  numeric_value
 0  AHFQPQRTAPKPPIS  SPOT intensity              5
 1  NFFRKKLGIPRKLKR  SPOT intensity            138
 2  PPIPIVPSSPAPPLP  SPOT intensity              0
 3  APPLPPTAPPPPSLP  SPOT intensity              2
 4  NENKKLPPAPTVFGL  SPOT intensity              4
 5  RPVPPPPPMRTTTEG  SPOT intensity              0
 6  GDHPKGPPPPPPPDE  SPOT intensity              3
 7  NIKVLLNPKLGKPVK  SPOT intensity             96
 8  APKREAPKPPANTSP  SPOT intensity              3
 9  NRARYLPQNPDIIAG  SPOT intensity              9
10  TPEIPPPLPPKIMVH  SPOT intensity              2
11  TEVPIPRRPPPPQAA  SPOT intensity              0
12  HPRFVSPRIPSRIVK  SPOT intensity              2
13  TTNRGPPPLPPRANV  SPOT intensity              0
14  VPPPMQPPPIESSNL  SPOT intensity              0
15  ERPKRRAPPPVPKKP  SPOT intensity              4
16  ALRRRLPVTRSKINW  SPOT intensity             46
17  ILARAILTIPRVLDK  SPOT intensity             36
18  DLFKPLPEPPTELGR  SPOT intensity              0
19  NNNKMRPHLPPLSSG  SPOT intensity             22
20  SSSSSPPPLPTRRDH  SPOT intensity             15
21  APPPPPRRATPEKKP  SPOT intensity              3
22  IKKRNKIRLPSGSPE  SPOT intensity             18
23  LKPPIGRPPKFPKSP  SPOT intensity              0
24  PKMLPIPSKPTLFDL  SPOT intensity              0
25  FYNRTAFQLPGDARV  SPOT intensity              0
26  RKRAPTPPAPSRSEK  SPOT intensity             15
27  ITHRLRISIPGITGR  SPOT intensity             29
28  QRIRKIPGIPLMSVG  SPOT intensity              2
29  SRQAIPPPVPNRPGG  SPOT intensity              0
